# Tested on: HCT-116 colon
# MEASUREMENT PROTOCOL: NCI tumour cell line growth inhibition, 48 h
METRIC: TGI

Oc1[nH]c2c(Br)cccc2c1C1=Nc2ccccc2/C1=N/OCCN1CCCC1 : 1.78 µM

Please give TGI, item by item, for the list that follows.
1. O=C(O)CCSC(=O)Nc1ccccc1F
2. COc1cc(C(O)C(=O)c2nc3ccc([N+](=O)[O-])cc3[nH]c2=O)ccc1O (stereo not drawn)

1: > 100 µM; 2: > 100 µM

Hello, I would appreciate it if you could give TGI for each entry below.
1. COc1ccc(C2=NN(C(N)=S)C(c3ccccc3)C2)cc1 (stereo not drawn)
2. Cc1cc2[nH]c(=O)c3c4ccccc4cn3c2cc1C
3. Cc1c(F)c(N)c2c(=O)cc(-c3ccc(N)c(F)c3)oc2c1F
4. Cc1sc2nc(-c3ccc([N+](=O)[O-])cc3)c(/C=N/N=C(N)N)n2c1C
5. CC(C)C(Sc1nc(-c2ccccc2)c(-c2ccccc2)[nH]1)C(=O)NN (stereo not drawn)
6. Cc1ccc2c(c1)C(C)Cc1c(Cl)ncnc1N2C (stereo not drawn)

1. > 100 µM
2. 3.13 µM
3. 38.2 µM
4. 0.427 µM
5. > 100 µM
6. 14.2 µM
